Entries and their measured IC50 follow.
- target.of.assay: CXCR4 (Homo sapiens)
- Sequence (P61073 whole entry): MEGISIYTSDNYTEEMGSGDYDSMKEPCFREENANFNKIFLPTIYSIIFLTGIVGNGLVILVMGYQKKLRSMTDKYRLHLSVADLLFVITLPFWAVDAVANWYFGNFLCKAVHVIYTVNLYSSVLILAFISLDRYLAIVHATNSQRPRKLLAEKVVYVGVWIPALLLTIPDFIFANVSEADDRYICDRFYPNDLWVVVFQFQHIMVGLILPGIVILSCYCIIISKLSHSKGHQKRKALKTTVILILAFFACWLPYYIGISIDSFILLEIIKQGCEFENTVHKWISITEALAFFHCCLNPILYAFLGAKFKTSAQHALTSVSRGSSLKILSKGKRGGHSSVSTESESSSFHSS
- test.protocol: Determination of inverse IC50 (invIC50): radiolabeled peptide displaced by Fc-131 on Jurkat cells
Positions of bridges follow the written chain, without caps; N, C: chain ends. Non-standard residues stand in square brackets, D forms with d. Residues, ends and D or L forms follow the SMILES beside them. Groups on a side chain read outwards from the residue. Chains are numbered I, II in the order given. *: point of attachment. X9 = NCCNCC(CNCCN)C(=O)NC[C@@H](NC(=O)CC[C@@H](NC(=O)N[C@H](CCC(=O)O)C(=O)O)C(=O)O)C(=O)*; X8 = NCCNCC(CNCCN)C(=O)NC[C@@H](NC(=O)CCC(NC(=O)N[C@H](CCC(=O)O)C(=O)O)C(=O)O)C(=O)*; 2Nal = N[C@@H](Cc1ccc2ccccc2c1)C(=O)O; dNMeOrn = CN[C@H](CCCN)C(=O)O; HYNIC = NNc1ccc(C(=O)*)cn1; Mercaptoacetyl = O=C(CS)*; 4Abz = Nc1ccc(C(=O)O)cc1; dDap = NC[C@@H](N)C(=O)O; Ahx = NCCCCCC(=O)O
Please respond with the number in nM and leave the unit unwritten.

[[record]]
molecule = "C[C@@H](NC(=O)[C@@H](CCCNC(=N)N)NC(=O)[C@@H](CN)NC(=O)CCCCCNC(=O)[C@@H](CNC(=O)C(CNCCN)CNCCN)NC(=O)CC[C@@H](NC(=O)N[C@H](CCC(=O)O)C(=O)O)C(=O)O)C(=O)Nc1ccc(C(=O)NCCC[C@@H]2C(=O)N[C@@H](CCCNC(=N)N)C(=O)N[C@@H](Cc3ccc4ccccc4c3)C(=O)NCC(=O)N[C@H](Cc3ccc(O)cc3)C(=O)N2C)cc1 [Tc-CXCR4-16] (cyclo([2Nal]G[dY][dNMeOrn]([4Abz-dA-dR-dDap-Ahx-X9])R))"
value_units = "nM"
numeric_result = 6.08

[[record]]
molecule = "C[C@@H](NC(=O)[C@@H](CCCNC(=N)N)NC(=O)[C@@H](CN)NC(=O)[C@@H](CO)NC(=O)[C@@H](CO)NC(=O)[C@@H](CO)NC(=O)CS)C(=O)Nc1ccc(C(=O)NCCC[C@@H]2C(=O)N[C@@H](CCCNC(=N)N)C(=O)N[C@@H](Cc3ccc4ccccc4c3)C(=O)NCC(=O)N[C@H](Cc3ccc(O)cc3)C(=O)N2C)cc1 [Tc-CXCR4-6] (I: Mercaptoacetyl-[dS][dS][dS][dDap][dR][dA][4Abz] / II: cyclo([dY][dNMeOrn]R[2Nal]G); amide I:C-II:2)"
value_units = "nM"
numeric_result = 3.67

[[record]]
molecule = "C[C@@H](NC(=O)[C@@H](CCCNC(=N)N)NC(=O)[C@@H](CN)NC(=O)[C@@H](CNC(=O)C(CNCCN)CNCCN)NC(=O)CCC(NC(=O)N[C@H](CCC(=O)O)C(=O)O)C(=O)O)C(=O)Nc1ccc(C(=O)NCCC[C@@H]2C(=O)N[C@@H](CCCNC(=N)N)C(=O)N[C@@H](Cc3ccc4ccccc4c3)C(=O)NCC(=O)N[C@H](Cc3ccc(O)cc3)C(=O)N2C)cc1 (stereo partly shown) [Tc-CXCR4-15] (cyclo([2Nal]G[dY][dNMeOrn]([4Abz-dA-dR-dDap-X8])R))"
value_units = "nM"
numeric_result = 3.69


Using known records, supply IC50 for C[C@@H](NC(=O)[C@@H](CCCNC(=N)N)NC(=O)[C@@H](CN)NC(=O)c1ccc(NN)nc1)C(=O)Nc1ccc(C(=O)NCCC[C@@H]2C(=O)N[C@@H](CCCNC(=N)N)C(=O)N[C@@H](Cc3ccc4ccccc4c3)C(=O)NCC(=O)N[C@H](Cc3ccc(O)cc3)C(=O)N2C)cc1 [Tc-CXCR4-13] (cyclo([dY][dNMeOrn]([4Abz-dA-dR-dDap-HYNIC])R[2Nal]G))
4.16
